- tested_system: Genome polyprotein (Dengue virus type 2 (strain 16681-PDK53))
- measurement_notes: flavivirus cap methylation enzyme inhibition – biochemical, confirmation dose response, primary screen (AID 588689)
- test_parameters: Dengue-2 NS5 methyltransferase capping enzyme assay, at 25 µM, hits give high values
The whole screen tested about 340,000 compounds, of which about 1,000 (0.29%) were called active. A selection follows. Entries with a potency or affinity are not part of this list.
measured_parameter: inhibition (%)
Write the value in % as a bare number.

The following compounds have reported results that may help.
| compound | tested_system | inhibition (%) |
| --- | --- | --- |
| Cc1ccc(S(=O)(=O)c2cc(Nc3ccccc3)ccc2O)cc1 | Genome polyprotein (Dengue virus type 2 (strain 16681-PDK53)) | 8.82 |
| O=C(CCOc1ccccc1)NNC(=O)c1ccccc1 | Genome polyprotein (Dengue virus type 2 (strain 16681-PDK53)) | -4.63 |
| CCC(c1ccc(O)c(O)c1)C(CC)c1ccc(O)c(O)c1 (centres undefined) | Genome polyprotein (Dengue virus type 2 (strain 16681-PDK53)) | -0.78 |

# inhibition (compound: `Cc1ccc(/C=C2/C(=O)ON=C2c2ccccc2)o1` ) is 19.3

# inhibition (compound: `O=S(=O)(O)c1cc(O)c2ccc(Nc3ccccc3)cc2c1` ) is 8.94
